All figures here come from patent US20250002543A1.

Molecular target: human antibody (gamma globulin preparation, manufactured by The Chemo-Sero-Therapeutic Research Institute) (human)
Assay: ELISA; human gamma globulin immobilised; acid treatment 50 mM buffer pH 3.2, 25 C, 5 min; elution rate = 1 - remaining binding activity
observable: Elution rate [%] (%)
Your answer should be a plain number; it is taken to be in %.

Examples with answers:
FpL_C3KX 9c (designed binder) ETPGESAEEVTIRVNLIFADGRRQTAEFIGTFEEATAEAYAYANLLARDYGEFTADLEDGGYTLNIRFVGHHHHHH ... 69
FpL_C3KX 9d (designed binder) ETPGESAEEVTIRVNLIFADGRIQTAEFIGTFEEATAEAYAYARLLARDYGEFTADLEDGGYTLNIRFVGHHHHHH ... 63

Exercise: Give the measured Elution rate [%] of FpL_C3KX 9b (designed binder) ETPGESAEEVTIRVNLIFADGRRQTAEFIGTFEEATAEAYAYAHLLARDYGEFTADLEDGGYTINIRFVGHHHHHH .
Solution: 68
